# Tested On: cyclooxygenase (Oryctolagus cuniculus)
# Construct: Washed rabbit PRP (900 µl) was preincubated with drug solution; endogenous in cells
# Sequence (O97554 31-606): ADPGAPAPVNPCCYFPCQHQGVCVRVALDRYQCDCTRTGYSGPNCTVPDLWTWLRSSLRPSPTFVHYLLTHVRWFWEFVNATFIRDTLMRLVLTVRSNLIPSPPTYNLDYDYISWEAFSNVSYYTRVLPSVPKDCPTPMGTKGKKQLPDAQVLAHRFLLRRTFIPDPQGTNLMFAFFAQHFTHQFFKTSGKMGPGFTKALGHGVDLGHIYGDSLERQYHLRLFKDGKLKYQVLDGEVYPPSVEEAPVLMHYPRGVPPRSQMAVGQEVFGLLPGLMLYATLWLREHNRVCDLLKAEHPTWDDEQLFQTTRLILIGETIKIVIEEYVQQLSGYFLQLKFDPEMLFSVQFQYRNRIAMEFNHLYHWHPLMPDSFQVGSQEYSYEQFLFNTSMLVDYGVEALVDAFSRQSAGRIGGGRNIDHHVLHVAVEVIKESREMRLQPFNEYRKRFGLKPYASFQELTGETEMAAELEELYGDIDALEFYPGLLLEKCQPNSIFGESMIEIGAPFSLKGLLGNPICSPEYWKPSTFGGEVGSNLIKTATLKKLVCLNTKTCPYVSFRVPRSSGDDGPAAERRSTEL
# Assay Method Text: Effect on malondialdehyde (MDA) production in rabbit platelets
# Measurement Parameters: dose required to inhibit the production of malondialdehyde by 50%; washed rabbit PRP, arachidonic acid added; read-out: IC₅₀
Attribute Measured: IC50 (nM)
Answers are plain numbers, in nM.

### Prompt Please provide the recorded IC50 for COc1ccc(-c2nc(CNC(C)=O)sc2-c2ccc(OC)cc2)cc1 [Example 1] , tested on cyclooxygenase (Oryctolagus cuniculus).
### Response 15
